// provenance: ChEMBL document CHEMBL5131383

molecular target: Poly [ADP-ribose] polymerase 1 (Homo sapiens); assay: Inhibition of human PARP1 using NAD+ as substrate at 5 nM incubated for 1 hr by ELISA relative to control
Sequence (P09874 whole entry): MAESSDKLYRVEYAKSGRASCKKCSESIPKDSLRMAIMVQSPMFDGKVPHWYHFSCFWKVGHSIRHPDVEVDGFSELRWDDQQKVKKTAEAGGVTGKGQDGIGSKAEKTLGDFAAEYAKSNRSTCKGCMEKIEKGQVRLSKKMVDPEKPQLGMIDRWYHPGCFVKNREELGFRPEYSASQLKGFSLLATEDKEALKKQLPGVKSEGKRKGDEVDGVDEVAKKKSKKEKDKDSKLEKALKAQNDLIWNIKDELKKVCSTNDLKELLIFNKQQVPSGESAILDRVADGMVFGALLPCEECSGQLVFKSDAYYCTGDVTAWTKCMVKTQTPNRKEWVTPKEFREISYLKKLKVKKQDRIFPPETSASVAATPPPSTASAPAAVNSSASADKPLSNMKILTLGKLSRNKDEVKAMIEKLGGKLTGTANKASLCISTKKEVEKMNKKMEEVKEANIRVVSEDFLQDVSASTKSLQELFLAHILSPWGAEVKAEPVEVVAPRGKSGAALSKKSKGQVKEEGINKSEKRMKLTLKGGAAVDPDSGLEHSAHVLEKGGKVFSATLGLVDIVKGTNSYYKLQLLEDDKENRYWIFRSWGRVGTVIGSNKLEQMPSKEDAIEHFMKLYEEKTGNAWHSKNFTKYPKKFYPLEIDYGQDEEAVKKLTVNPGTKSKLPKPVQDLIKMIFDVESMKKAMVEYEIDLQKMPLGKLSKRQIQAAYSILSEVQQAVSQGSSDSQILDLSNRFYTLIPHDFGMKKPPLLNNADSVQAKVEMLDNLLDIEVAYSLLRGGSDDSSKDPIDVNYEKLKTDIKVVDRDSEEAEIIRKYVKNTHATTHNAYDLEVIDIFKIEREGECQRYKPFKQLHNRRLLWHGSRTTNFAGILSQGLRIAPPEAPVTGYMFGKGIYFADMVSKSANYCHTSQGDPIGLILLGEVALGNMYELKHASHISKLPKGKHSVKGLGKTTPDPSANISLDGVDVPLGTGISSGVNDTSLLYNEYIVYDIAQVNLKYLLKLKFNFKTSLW
In this section we review reported inhibition values for a set of compounds.
METRIC: inhibition

# SMILES_REPR, TARGET_DESC, METRIC, RESULT
measured = [
    ("CC(C)(C)OC(=O)NC1CCN(Cc2cccc(-c3[nH]c4cc(F)cc5c4c3CCNC5=O)c2)CC1", "Poly [ADP-ribose] polymerase 1 (Homo sapiens)", "inhibition", "76.5%"),
    ("O=Cc1ccc(-c2[nH]c3cc(F)cc4c3c2CCNC4=O)cc1", "Poly [ADP-ribose] polymerase 1 (Homo sapiens)", "inhibition", "93.6%"),
    ("CC(C)(C)c1ccc(-c2[nH]c3cc(F)cc4c3c2CCNC4=O)cc1", "Poly [ADP-ribose] polymerase 1 (Homo sapiens)", "inhibition", "56.2%"),
    ("C[C@@H]1CN(Cc2ccc(-c3[nH]c4cc(F)cc5c4c3CCNC5=O)cc2)CCN1", "Poly [ADP-ribose] polymerase 1 (Homo sapiens)", "inhibition", "90.4%"),
    ("O=C1NCCc2c(-c3cccc(CN4CCn5c(nnc5C(F)(F)F)C4)c3)[nH]c3cc(F)cc1c23", "Poly [ADP-ribose] polymerase 1 (Homo sapiens)", "inhibition", "48.4%"),
    ("O=C1NCCc2c(-c3ccc(B(O)O)cc3)[nH]c3cc(F)cc1c23", "Poly [ADP-ribose] polymerase 1 (Homo sapiens)", "inhibition", "67.4%"),
]
